measured target: corticotropin releasing factor 1 receptor
test summary: cell-based or functional assay
Ends that are not written are not given here.
Reported CRF1R Emax % values follow for various binders
parameter measured: CRF1R Emax % (%)

binder="ZGPPISIDLPYYLLRKMIEIEKQEKEKQQAANNALLLDTI (C-terminal amide) [SEQ ID NO 226]" reported=95
binder="DNPSLSIDLPLFLLRTLLELARTQSQRERAEQNARIFARV-NH2 [SEQ ID NO 329]" reported=98.4
binder="ZGPPISIDLPQYLLRKMIEIEKQEKEKQQAANNALLLDTI (C-terminal amide) [SEQ ID NO 224]" reported=27
binder="DNPSLSIDLPLFLLRTLLELEKTQSQRERAEQNAIIFASV-NH2 [SEQ ID NO 343]" reported=62.5
binder="ZGPPISIDLPYYLLRKMIEIEKQEKEKQQAANNALLLATI (C-terminal amide) [SEQ ID NO 225]" reported=97
binder="ZGPPISIDLPLELLRKMIEIEKQEKEKQQAANNALLLDTI (C-terminal amide) [SEQ ID NO 235]" reported=70
